target: C. difficile toxin A from strain VPI10463 (ATCC 43255), toxinotype 0 (Clostridium difficile, UniProt P16154 1-2710); assay: BLI (Octet Red96), antibody on Protein A sensor, toxin in solution
Sequence (P16154 whole entry): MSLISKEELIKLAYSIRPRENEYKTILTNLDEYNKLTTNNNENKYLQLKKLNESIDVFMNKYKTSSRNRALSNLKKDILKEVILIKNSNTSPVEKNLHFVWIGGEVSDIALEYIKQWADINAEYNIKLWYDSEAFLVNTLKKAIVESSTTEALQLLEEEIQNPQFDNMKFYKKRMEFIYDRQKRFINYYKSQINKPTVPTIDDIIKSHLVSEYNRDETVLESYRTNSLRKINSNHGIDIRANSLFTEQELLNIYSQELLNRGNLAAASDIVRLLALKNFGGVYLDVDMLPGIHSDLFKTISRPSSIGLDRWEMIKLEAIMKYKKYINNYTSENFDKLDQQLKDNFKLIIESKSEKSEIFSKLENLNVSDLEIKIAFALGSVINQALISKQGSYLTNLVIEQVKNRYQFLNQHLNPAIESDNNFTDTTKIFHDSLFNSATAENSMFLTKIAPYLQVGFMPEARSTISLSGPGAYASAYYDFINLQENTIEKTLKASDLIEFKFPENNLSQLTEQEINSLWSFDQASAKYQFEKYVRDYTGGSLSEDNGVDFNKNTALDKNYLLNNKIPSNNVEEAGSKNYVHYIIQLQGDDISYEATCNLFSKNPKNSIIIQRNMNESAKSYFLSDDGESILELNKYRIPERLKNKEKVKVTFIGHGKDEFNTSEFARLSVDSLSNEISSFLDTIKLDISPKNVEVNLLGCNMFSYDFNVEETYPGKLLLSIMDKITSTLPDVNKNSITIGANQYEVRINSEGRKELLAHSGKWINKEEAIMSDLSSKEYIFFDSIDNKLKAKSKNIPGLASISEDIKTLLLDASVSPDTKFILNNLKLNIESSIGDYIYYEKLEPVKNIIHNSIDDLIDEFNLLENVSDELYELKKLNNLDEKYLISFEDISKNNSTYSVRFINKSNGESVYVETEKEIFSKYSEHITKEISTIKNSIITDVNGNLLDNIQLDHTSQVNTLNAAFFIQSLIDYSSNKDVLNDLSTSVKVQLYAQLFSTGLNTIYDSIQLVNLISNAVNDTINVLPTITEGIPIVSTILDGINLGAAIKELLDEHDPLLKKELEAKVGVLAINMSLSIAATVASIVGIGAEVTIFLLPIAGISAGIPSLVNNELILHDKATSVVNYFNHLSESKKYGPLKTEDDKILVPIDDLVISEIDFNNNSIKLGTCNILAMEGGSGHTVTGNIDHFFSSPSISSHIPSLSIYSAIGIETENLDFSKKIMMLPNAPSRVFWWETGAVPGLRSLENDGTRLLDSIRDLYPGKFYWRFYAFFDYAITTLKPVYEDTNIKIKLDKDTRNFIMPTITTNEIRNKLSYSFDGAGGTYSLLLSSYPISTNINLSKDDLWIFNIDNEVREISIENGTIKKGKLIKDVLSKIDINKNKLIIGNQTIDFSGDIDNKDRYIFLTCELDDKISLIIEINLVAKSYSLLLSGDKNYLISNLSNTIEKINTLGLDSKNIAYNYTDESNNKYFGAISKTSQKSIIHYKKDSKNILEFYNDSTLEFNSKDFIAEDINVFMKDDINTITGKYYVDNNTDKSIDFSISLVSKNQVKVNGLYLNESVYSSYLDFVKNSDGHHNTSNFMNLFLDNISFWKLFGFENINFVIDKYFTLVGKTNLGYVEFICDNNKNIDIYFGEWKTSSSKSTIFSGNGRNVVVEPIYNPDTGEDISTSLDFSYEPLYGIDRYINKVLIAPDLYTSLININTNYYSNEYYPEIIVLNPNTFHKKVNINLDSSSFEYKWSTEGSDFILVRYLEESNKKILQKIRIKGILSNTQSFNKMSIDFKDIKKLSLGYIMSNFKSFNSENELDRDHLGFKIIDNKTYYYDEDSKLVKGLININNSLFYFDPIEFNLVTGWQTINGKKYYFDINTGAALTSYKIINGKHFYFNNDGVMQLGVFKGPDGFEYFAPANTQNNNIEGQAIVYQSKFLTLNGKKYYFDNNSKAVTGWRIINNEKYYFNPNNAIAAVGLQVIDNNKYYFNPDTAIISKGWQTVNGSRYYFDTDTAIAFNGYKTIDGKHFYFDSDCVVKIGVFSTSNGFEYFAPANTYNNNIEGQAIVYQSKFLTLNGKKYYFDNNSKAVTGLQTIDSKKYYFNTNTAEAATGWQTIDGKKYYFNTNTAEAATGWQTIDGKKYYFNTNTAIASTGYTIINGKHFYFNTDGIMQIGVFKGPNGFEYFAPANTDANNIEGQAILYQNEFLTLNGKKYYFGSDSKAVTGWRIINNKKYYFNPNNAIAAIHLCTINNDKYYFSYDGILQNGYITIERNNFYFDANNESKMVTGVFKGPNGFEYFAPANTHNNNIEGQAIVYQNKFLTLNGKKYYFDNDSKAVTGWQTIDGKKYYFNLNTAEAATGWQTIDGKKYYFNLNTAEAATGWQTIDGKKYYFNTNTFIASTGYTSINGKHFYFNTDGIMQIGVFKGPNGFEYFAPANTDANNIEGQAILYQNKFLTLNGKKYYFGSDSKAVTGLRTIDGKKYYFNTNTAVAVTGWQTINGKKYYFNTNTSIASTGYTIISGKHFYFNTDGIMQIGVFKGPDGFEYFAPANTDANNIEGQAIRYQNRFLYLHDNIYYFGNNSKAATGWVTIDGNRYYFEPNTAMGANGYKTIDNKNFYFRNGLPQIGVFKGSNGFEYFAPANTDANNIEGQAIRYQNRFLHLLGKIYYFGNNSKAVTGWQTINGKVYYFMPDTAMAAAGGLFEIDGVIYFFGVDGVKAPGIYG
Readout label: kon (M⁻¹ s⁻¹)
# output: bare number, implied unit M⁻¹ s⁻¹

>  <Binder>
A5 antibody (antibody, V domains shown) VH: QVHLVESGGGVVQPGRSLRLSCATFGLNFSDYGFHWVRQAPGKGLEWVAVTSYDGSNKYYAEFVKGRFTISRDNYKNTVYLQMNSLRLEDTAVYYCARDLAPYNFWSGYGNNWFDPWGQGTLVTVSS VL: EIVMTQSPATLSVSPGERATLSCRASQSISSNLAWYQQKPGQAPRLLIYDASTRATGIPARFSGSGSGTEFTLTISSLQSEDFAVYYCQQYNDWLVTFGQGTKVEIKR

>  <Readout label>
kon

>  <Value reported>
312000

$$$$
>  <Binder>
A3 antibody (antibody, V domains shown) VH: MQLLESGGGLVKPGGSLRLSCAASGFTFSNAWMSWVRQGPGKGLEWVGRIKSKTDGGTTDYAAPVKGRFSISRNDSNNTLFLQMNSLKTEDTAVYYCTTGPQIVVVAGATSRDQPNYYYYGLDVWGLGTTVTVSS VL: QSVLTQPPSASGTPGQRVTISCSGSSSNIGINTVNWYQQLPGTAPKLLIYKSNLRPSGVPDRFSGSKSGTSASLAISGLRSEDEADYYCAAWDDSLTGLYVFGTGTKVTVLG

>  <Readout label>
kon

>  <Value reported>
169000

$$$$
>  <Binder>
A2 antibody (antibody, V domains shown) VH: QVQLQESGPGLVKPSETLSLTCTVSGGSISTYYWSWIRQSPGKGLEWMGYIYYSGSTNYNPSLESRVTIAVDTSKNQFSLQLTSVTAADTAVYYCARGAAEWLRFRGFFDSWGQGTLVTVSS VL: ENVLTQSPGTLSLSPGERATLSCRASHSVTNNFLAWYQQKPGQAPRLLIYGVSSRATGIPDRFSGSGSGTDFTLTISRLEPEDFAVYYCQQYGVSGTFGQGTKLEIKR

>  <Readout label>
kon

>  <Value reported>
356000

$$$$

With those in mind, consider the next binder.
Value lookup for kon; key = A4 antibody (antibody, V domains shown) VH: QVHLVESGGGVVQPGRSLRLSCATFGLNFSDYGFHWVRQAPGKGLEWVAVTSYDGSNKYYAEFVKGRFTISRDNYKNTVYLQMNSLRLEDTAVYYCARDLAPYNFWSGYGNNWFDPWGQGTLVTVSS VL: EIVLTQSPGTLSLSPGERATLSCRASQSVTGTSLAWFQQKPGQAPRLLIYGASSRATGIPDRFSGSGSGTDFTLTISRLEPEDFAVYYCQQYGSSPRLTFGGGTKVEIKR
555000
